Every entry's value here was drawn from PubChem BioAssay.

Assay: S. cerevisiae RM11-1a growth modifiers, primary screen, strain RM11-1a, OD600, basal, 24 h (AID 1177);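 also: cultures grown under basal conditions with no added stressor; test concentration not given here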
Conditions: OD600, 24 h, higher = more signal, called active from +8 up or from −8 down
Assay Metric: z-score
Numbers only.

Noted for C=CC[C@@]1(C(=O)NCC(O)CO)N=C(c2ccc(OCCCO)cc2)O[C@@H]1c1ccccc1N=[N+]=[N-] (stereo partly drawn) : its z-score reads 0.0157

I'm hoping you can list z-score for every molecule here, please.
1. COCC(=C=CC[C@H](O)c1ccc(OCCO)cc1)C[C@H](O)c1cc(Cl)cc(Cl)c1O
2. NC(=O)NCC#Cc1ccc2c(c1)[C@]1(C(=O)N2)[C@H](C(=O)NC[C@H](O)c2ccccc2)[C@H]2C(=O)O[C@H](c3ccccc3)[C@H](c3ccccc3)N2[C@@H]1c1ccc(O)cc1

-22.1
2.12

----------
Assay: COS7 lysate on small-molecule microarray, probe aHis, 635 nm (AID 1123);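 also: z-score combines 667nm fluorescence intensity with signal-to-noise per printed compound spot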
Settings: COS7 cell lysate, fluorescence, higher = more signal
So I've got a bunch of compounds here, and I need their composite z-score values.
One number for each entry.

Guide cases for composite z-score, answers given:
Noted for "COCCCNC(=O)[C@@]1(CCC(=O)OC(C)(C)C)N=C(c2ccc(OCCCO)cc2)O[C@H]1c1ccccc1CN=[N+]=[N-]" : its composite z-score reads 3.34

Noted for "COCCCNC(=O)[C@@]1(C)c2ccccc2C(=O)N(Cc2cc(C(F)(F)F)cc(C(F)(F)F)c2)[C@H]1c1ccc(CO)cc1" : its composite z-score reads 1.68

Attention now shifts to the item below.
Noted for "C=CCOC(=O)[C@H]1[C@@H]2C(=O)O[C@@H](c3ccccc3)[C@@H](c3ccccc3)N2[C@@H](c2ccc(OCCOC(=O)[C@@H]3C[C@@H]4C(=O)N5CCC[C@H]5C(=O)N4[C@@H]3c3ccc(O)cc3)cc2)[C@]12C(=O)Nc1ccccc12" : its composite z-score reads 1.36

----------
So I've got a bunch of compounds here, and I need their z-score values.
Test: RPMI8226 myeloma cell viability, profiling panel, resazurin fluorescence, basal, 24 h, PK04 Diversity Set (AID 1180);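 also: RPMI8826 multiple myeloma cell line at 5000 cells per well; test concentration not given here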
Conditions: higher = more signal

Guide cases for z-score, answers given:
Noted for O=C1C2C=CC(C(O)c3cccs3)N(Nc3ccccc3F)C2C(=O)N1c1ccccc1 (stereo not given) : its z-score reads 0.562

Noted for "O=C(O)[C@@]1(Cc2ccccc2)N=C(c2ccc(OCCCO)cc2)O[C@H]1c1ccccc1" : its z-score reads 0.655

Noted for CCCCCN1CC=CC23O[C@@H]4/C=C\CCCOC(=O)C4[C@H]2C(=O)N(CCCCCCO)[C@@H]3C1=O (stereo not given in full) : its z-score reads 1.42

Noted for "COc1ccc([Si](C)(C)[C@@H]2[C@@H](CCn3cc([C@H](O)c4ccccc4)nn3)O[C@]3(C(=O)N(Cc4ccc(N5C(=O)c6cccc7cccc5c67)cc4)c4ccccc43)[C@H]2C)cc1" : its z-score reads -1.01

I'm hoping you can list z-score for every compound here, please.
1. C=C(C(=O)CC[C@H](OC(C)=O)c1ccc(OCCO)cc1)C(C)C
2. COCCOC(=O)N1C(=O)[C@@]2(c3cc(C#CCCO)ccc31)[C@H](C(=O)NC[C@H](O)c1ccccc1)[C@H]1C(=O)O[C@H](c3ccccc3)[C@H](c3ccccc3)N1[C@@H]2c1ccc(O)cc1
3. CCOC(=O)C1=CC[C@@H](c2ccccc2)N(S(=O)(=O)c2ccc(C)cc2)[C@H]1C(=O)OCC
4. COc1cc(CO)ccc1OC(C)=O
5. C=CCC(OC(C)=O)[C@@H]1[C@@H](N(Cc2cc3ccccc3o2)C(=O)c2ccc(C)cc2)c2cc(OCCCO)ccc2N1C(=O)c1ccc2ccccc2c1 (stereo not given in full)
6. CC(C)=CCCC(C)=CC(O)C1C=CC2C(=O)N(c3ccccc3)C(=O)C2N1Nc1ccccc1 (stereo not given)
7. CCOC(=O)C1=CCC(c2ccc([N+](=O)[O-])cc2)N(S(=O)(=O)c2ccc(C)cc2)C1 (stereo not given)
8. C=CCOC(=O)[C@H]1[C@@H]2C(=O)O[C@@H](c3ccccc3)[C@@H](c3ccccc3)N2[C@@H](c2ccc(OCCOC(=O)[C@@H]3C[C@@H]4C(=O)N5CCC[C@H]5C(=O)N4[C@@H]3c3ccc(O)cc3)cc2)[C@]12C(=O)Nc1ccccc12

1: -0.349; 2: 1.04; 3: -0.904; 4: -0.927; 5: 1.72; 6: -1.56; 7: -1.5; 8: 1.71

I'm hoping you can list z-score for every compound here, please.
1. CC(C)(C)OC(=O)CC[C@]1(C(=O)N2CCCCC2)N=C(c2ccc(OCCCO)cc2)O[C@H]1c1ccccc1N=[N+]=[N-]
2. CCOC(=O)[C@H]1C/C=C/C[C@H](C(=O)OCC)C(=O)O[C@H]2[C@@H](OC)O[C@H](CO)[C@@H](OC(=O)Nc3ccc4c(c3)OCO4)[C@@H]2OC1=O
3. CN(C)CCCCCCNC(=O)[C@H]1C[C@H]2C(=O)N[C@@H](CCCCN)C(=O)N2[C@H]1c1ccc(O)cc1

1: -1.32; 2: -6.84; 3: 0.263

----------
Test: basal RPMI8226 mitochondrial membrane potential changes, profiling panel, cell-based, JC-1 fluorescence, 24 h, 100 nL compound (AID 1169); also: test concentration not given here
Settings: RPMI8226 myeloma, JC-1 mitochondrial potential fluorescence, higher = more signal
Assay Metric: z-score
Numbers only.

Guide cases for z-score, answers given:
Noted for "COC(=O)[C@@]1(Cc2ccc(OC)cc2)[C@H]2c3cc(C(=O)N4CCCC4)n(Cc4cc(F)cc5c4OCOC5)c3C[C@H]2CN1C(=O)c1ccccc1" : its z-score reads -0.753

Noted for "N[C@@H](Cc1ccccc1)Cn1cc(-c2ccccc2)nn1" : its z-score reads -0.515

Noted for "COCCOC(=O)N1C(=O)[C@@]2(c3cc(C#CCC(C(=O)OC)C(=O)OC)ccc31)[C@H](C(=O)N1CCN(c3ncccn3)CC1)[C@H]1C(=O)O[C@H](c3ccccc3)[C@H](c3ccccc3)N1[C@@H]2c1ccc(OCCO)cc1" : its z-score reads -0.303

I'm hoping you can list z-score for every molecule here, please.
1. CC(C)=CCCC(C)=CC(O)C1C=CC2C(=O)N(c3ccccc3)C(=O)C2N1Nc1ccccc1 (stereo not given)
2. O=C1O[C@H](c2ccccc2)[C@H](c2ccccc2)N2[C@H]1[C@@H](C(=O)O)[C@]1(C(=O)Nc3ccc(C#CC4(O)CCCCCC4)cc31)[C@H]2c1ccc(OCCO)cc1
3. CC1=C2[C@@H](CCc3ccccc3)OB(O)C[C@@H]2n2c(=O)n(-c3ccccc3)c(=O)n2C1
4. O=C1OCCC/C=C\[C@H]2OC34C=CCN(Cn5nnc6ccccc65)C(=O)[C@H]3N(CCCCCO)C(=O)[C@@H]4C12 (stereo not given in full)
5. C=CC[C@@]1(C(=O)O)N=C(c2ccc(OCCCO)cc2)O[C@@H]1c1ccccc1N=[N+]=[N-]
6. CCCCC=C[C@@H](NC(=O)c1ccc(C(=O)OC)cc1)c1ccccc1
7. O=C1O[C@H](c2ccccc2)[C@H](c2ccccc2)N2[C@H]1[C@@H](C(=O)N1CCN(c3ncccn3)CC1)[C@]1(C(=O)Nc3ccccc31)[C@H]2c1ccc(OCCO)cc1

1: -0.222; 2: -0.559; 3: 0.146; 4: -0.212; 5: -0.919; 6: -0.862; 7: -1.16

I'm hoping you can list z-score for every molecule here, please.
1. COc1ccc(C#Cc2ccc3c(c2)[C@]2(C(=O)N3)[C@H](C(=O)NC[C@H](O)c3ccccc3)[C@H]3C(=O)O[C@H](c4ccccc4)[C@H](c4ccccc4)N3[C@@H]2c2ccc(OCCO)cc2)cc1
2. COc1ccc(CCNC(=O)[C@@H]2c3ccccc3C(=O)N(Cc3ccc(OC(F)(F)F)cc3)[C@H]2c2ccc(CO)cc2)cc1
3. CCOC(=O)C1=CC[C@@H](c2ccccc2)N(S(=O)(=O)c2ccc(C)cc2)[C@H]1C(=O)OCC
4. CC(=O)Nc1cc(Br)ccc1C(=O)O
5. COC(=O)c1ccc(C(O)C2C=CC3C(=O)N(C)C(=O)C3N2NC(=O)OC(C)(C)C)o1 (stereo not given)

1. -1.04
2. 0.118
3. -0.619
4. -0.685
5. -0.535

----------
Test: S. cerevisiae RM11-1a growth modifiers, primary screen, strain RM11-1a, OD600, basal, 24 h (AID 1177);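 also: cultures grown under basal conditions with no added stressor; test concentration not given here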
Settings: OD600, 24 h, higher = more signal, called active from +8 up or from −8 down
So I've got a bunch of compounds here, and I need their z-score values.
One number for each entry.

Guide cases for z-score, answers given:
Noted for [N-]=[N+]=NCc1ccccc1C[C@@]1(C(=O)NCC(O)CO)N=C(c2ccc(OCCCO)cc2)O[C@@H]1c1ccccc1CN=[N+]=[N-] (stereo not given in full) : its z-score reads 0.0651

Noted for "CCCC[C@H]1OB(O)C[C@H]2C1=C(C)C[C@H]1C(=O)N(Cc3ccccc3)C(=O)[C@H]12" : its z-score reads -0.621

Noted for "Cc1ccc([C@H]2C(C(=O)O)=C[C@@H](C)N2S(=O)(=O)c2ccc(C)cc2)cc1" : its z-score reads -0.211

Noted for CCOC(=O)C1=CCC(C(C)(C)C)N(S(=O)(=O)c2ccc(C)cc2)C1 (stereo not given) : its z-score reads 1.29

Noted for COc1ccc(C(O)C2C=CC3C(=O)NC(=O)C3N2Nc2ccccn2)cc1OCc1ccccc1 (stereo not given) : its z-score reads 0.18

Noted for "O=C1O[C@H](c2ccccc2)[C@H](c2ccccc2)N2[C@H]1[C@@H](C(=O)O)[C@]1(C(=O)Nc3ccc(C#CC4=CCCCC4)cc31)[C@H]2c1ccc(OCCO)cc1" : its z-score reads 1.26

Noted for "CCOC(=O)C[C@H]1[C@H](OC(=O)Cc2ccc3c(c2)OCO3)[C@@H](NC(=O)c2ccc(-c3ccccc3)cc2)c2cc(OCCCO)ccc2N1C(=O)c1ccccc1" : its z-score reads 0.412

Noted for "COCCOC(=O)N1C(=O)[C@@]2(c3cc(C#CCNC(N)=O)ccc31)[C@H](c1ccc(O)cc1)N1[C@H](c3ccccc3)[C@H](c3ccccc3)OC(=O)[C@H]1[C@@H]2C(=O)Nc1nc2ccccc2s1" : its z-score reads -2.47

I'm hoping you can list z-score for every compound here, please.
1. COC(=O)C[C@H]1O[C@]2(C(=O)N(Cc3ccccc3)c3ccc(NC(C)=O)cc32)[C@@H](C)[C@@H]1[Si](C)(C)c1ccc(OC)cc1
2. O=c1cccc(CCc2ccccc2)o1
3. CC(C)C(O)C1C=CC2C(=O)N(c3ccccc3)C(=O)C2N1Nc1ccc(C#N)cc1 (stereo not given)
4. COc1ccc(C#Cc2ccc3c(c2)[C@]2(C(=O)N3)[C@H](c3ccc(O)cc3)N3[C@H](c4ccccc4)[C@H](c4ccccc4)OC(=O)[C@H]3[C@@H]2C(=O)N2CCCCCCC2)cc1
5. CCCCCCCCCCC(O)C1C=CC2C(=O)N(Cc3ccccc3)C(=O)C2N1n1cnnc1 (stereo not given)
6. O=C1OCCC=C[C@H]2OC34C=CCN(c5ccc6ccccc6c5)C(=O)[C@H]3N(CCCCCO)C(=O)[C@@H]4C12 (stereo not given in full)
7. CC(=O)Nc1cc(Br)ccc1C(=O)O

0.952
-0.259
-0.0111
-0.404
-0.623
-0.403
-0.129
